- system-tested: T1, recombinant human activated Factor VII (FVIIa) (human, UniProt P08709 61-212; P08709 213-466, ten glutamate residues of the Gla domain may be gamma-carboxylated)
- T1 construct: chains tethered by a disulfide bond; also called Factor VIIa; rFVIIa
- T1 sequence 1: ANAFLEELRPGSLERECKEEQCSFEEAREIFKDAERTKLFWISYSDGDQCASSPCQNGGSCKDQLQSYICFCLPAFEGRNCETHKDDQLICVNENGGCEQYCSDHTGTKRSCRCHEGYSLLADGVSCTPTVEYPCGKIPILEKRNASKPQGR
- T1 sequence 2: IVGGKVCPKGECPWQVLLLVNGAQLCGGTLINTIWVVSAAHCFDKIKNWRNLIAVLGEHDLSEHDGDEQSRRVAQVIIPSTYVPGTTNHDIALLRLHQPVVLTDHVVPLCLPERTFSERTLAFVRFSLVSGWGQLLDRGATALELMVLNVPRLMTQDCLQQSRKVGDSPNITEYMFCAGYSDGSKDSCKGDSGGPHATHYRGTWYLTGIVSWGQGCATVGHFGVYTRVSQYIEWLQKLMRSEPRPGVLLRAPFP
- procedure-summary: BLI (Fortebio)
parameter-measured: Kd (nM)
# unit: nM | format: bare number

Sample VH SEQ ID NO 586 / VL SEQ ID NO 326 (antibody, IgG4, V domains shown, humanized 11F2; IgG4 S228P/kappa) VH: QVQLQESGPGLVKPSDTLSLTCAVSGYSISSDSAWSWIRQPPGKGLEWIGYIQYSGSTNYNPSLKSRVTMSVDTSKNQFSLKLSSVTALDTAVYYCARSVNYYGNSFAVGYWGQGTLVTVSS VL: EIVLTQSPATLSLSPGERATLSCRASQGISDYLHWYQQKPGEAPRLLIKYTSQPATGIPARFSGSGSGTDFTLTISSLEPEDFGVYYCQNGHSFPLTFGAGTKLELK — what was its Kd?
9.9

For the binder VH SEQ ID NO 522 / VL SEQ ID NO 382 (antibody, IgG4, V domains shown, humanized 11F2; IgG4 S228P/kappa) VH: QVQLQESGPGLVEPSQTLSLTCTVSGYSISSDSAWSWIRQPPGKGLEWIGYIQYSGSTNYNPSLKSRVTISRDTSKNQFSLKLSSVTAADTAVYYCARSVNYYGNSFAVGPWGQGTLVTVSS VL: EIVLTQSPATLSLSPGERATLSCRASQGLSDYLHWYQQKPGEAPRLLIKYASQPATGIPARFSGSGSGTDFTLTISSLEPEDFAVYYCQNGHSFPLTFGQGTKLEIK , what Kd is on record?
1.3
